Quick reference for IC50 among some compounds
Molecular target: PKB-PIF fusion protein (protein kinase B) (Homo sapiens, UniProt P31751)
Construct: PIF (fusion partner); made in house
Sequence (P31751 with tags, fused parts or gaps limits assumed): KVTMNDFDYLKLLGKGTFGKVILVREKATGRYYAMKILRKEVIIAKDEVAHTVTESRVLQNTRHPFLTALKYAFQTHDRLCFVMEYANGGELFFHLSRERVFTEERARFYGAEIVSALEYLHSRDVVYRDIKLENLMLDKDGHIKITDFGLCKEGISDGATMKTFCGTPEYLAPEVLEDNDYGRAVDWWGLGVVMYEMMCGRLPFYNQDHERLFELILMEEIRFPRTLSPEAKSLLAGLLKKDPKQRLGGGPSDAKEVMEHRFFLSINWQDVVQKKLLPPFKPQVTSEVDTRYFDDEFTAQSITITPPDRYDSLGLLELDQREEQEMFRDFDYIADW
Experiment: Measurement of PKB kinase inhibitory activity (IC50)
Assay type: biochemical
Settings: 0.6 nM enzyme, 30 μM ATP/γ33P-ATP, 25 μM AKTide-2T substrate; read-out: PKB IC50
measurement.name: IC50

1. NCCOC(c1ccc(Cl)cc1)c1ccc(-c2cn[nH]c2)cc1 (stereo not drawn) [Example 49]: < 1 µM
2. Clc1ccc(C(CN2CCNCC2)c2ccc(-c3cn[nH]c3)cc2)cc1 (stereo not drawn) [Example 33]: < 1 µM
3. Oc1ccc(C2(c3ccc(-c4cn[nH]c4)cc3)CCNCC2)cc1 [Example 63]: < 1 µM
4. CNCC(c1ccc(F)cc1)c1ccc(-c2cn[nH]c2)cc1 (stereo not drawn) [Example 65]: < 1 µM
5. NC(Cc1ccc(-c2cn[nH]c2)cc1)c1ccccc1 (stereo not drawn) [Example 36]: < 5 µM
6. CNCC(C)(c1ccc(Cl)cc1)c1ccc(-c2cn[nH]c2)cc1 (stereo not drawn) [Example 82]: < 1 µM
7. CNCCC(c1ccc(-c2cn[nH]c2)cc1)c1ccc2ccccc2c1 (stereo not drawn) [Example 52]: < 1 µM
8. CNCCC(c1ccc(Cl)cc1)c1ccc(-c2cn[nH]c2)cc1 (stereo not drawn) [Example 8]: < 1 µM
9. CNCC(Oc1ccc(Cl)cc1)c1ccc(-c2cn[nH]c2)cc1 (stereo not drawn) [Example 71]: < 1 µM

* * *

Quick reference for pIC50 among some compounds
Molecular target: PKB-PIF fusion protein (protein kinase B) (Homo sapiens)
Construct: PIF (fusion partner); made in house
Experiment: Measurement of PKB kinase inhibitory activity (IC50)
Assay type: biochemical
Settings: 0.6 nM enzyme, 30 μM ATP/γ33P-ATP, 25 μM AKTide-2T substrate; read-out: PKB IC50
pIC50: −log10 of the molar value.
measurement.name: pIC50

1. Fc1cc(C2(c3ccc(-c4cn[nH]c4)cc3)CCNCC2)ccc1Cl [Example 87]: > 6.00
2. COc1ccc(C2(c3ccc(-c4cn[nH]c4)cc3)CCNCC2)cc1Cl [Example 86]: > 6.00
3. CNCCC(Oc1cccc(Cl)c1)c1ccc(-c2cn[nH]c2)cc1 (centres unmarked) [Example 59]: > 6.00
4. Cc1n[nH]c(C)c1-c1ccc(C(CN)c2ccccc2)cc1 (centres unmarked) [Example 3]: > 5.30
5. N#CC(Cc1ccccc1)c1cccc(-c2cn[nH]c2)c1 (centres unmarked) [Example 2]: > 5.30
6. CNC(=O)C(c1ccc(-c2cn[nH]c2)cc1)c1ccc(-c2cn[nH]c2)cc1 [Example 41]: > 4.30
7. CNCCC(c1ccc(O)cc1)c1ccc(-c2cn[nH]c2)cc1 (centres unmarked) [Example 76]: > 6.00
8. N#Cc1n[nH]cc1-c1ccc(C2(c3ccc(Cl)cc3)CCNCC2)cc1 [Example 55]: > 5.30
9. CC(C)NCC(c1ccc(Cl)cc1)c1ccc(-c2cn[nH]c2)cc1 (centres unmarked) [Example 26]: > 6.00
10. CN(C)CC(c1ccccc1)c1ccc(-c2cn[nH]c2)cc1 (centres unmarked) [Example 27]: > 6.00
11. Clc1ccc(C(CN2CCC2)c2ccc(-c3cn[nH]c3)cc2)cc1 (centres unmarked) [Example 35]: > 6.00
12. NCC(Cc1ccccc1)c1cccc(-c2cn[nH]c2)c1 (centres unmarked) [Example 6]: > 5.30
13. CNCC(c1ccc(Cl)cc1)c1ccc(-c2cn[nH]c2)cc1 (centres unmarked) [Example 21]: > 6.00
14. CNCCC(c1ccc(-c2cn[nH]c2)cc1)c1cccc(Cl)c1 (centres unmarked) [Example 10]: > 6.00
15. Clc1ccc(C(CCN2CCCC2)c2ccc(-c3cn[nH]c3)cc2)cc1 (centres unmarked) [Example 50]: > 6.00
16. NCCC(c1ccc(-c2cn[nH]c2)nc1)c1ccc(Cl)c(Cl)c1 (centres unmarked) [Example 94]: > 6.00
17. NCCC(c1ccc(Cl)cc1)c1ccc(-c2cn[nH]c2)cc1 (centres unmarked) [Example 12]: > 6.00
18. c1cc(C2(c3ccc(-c4cn[nH]c4)cc3)CCNCC2)ccn1 [Example 89]: > 5.30
19. NCC(Cc1ccccc1)c1ccc(-c2cn[nH]c2)cc1 (centres unmarked) [Example 7]: > 5.30
20. NCCC(c1ccc(-c2cn[nH]c2)cc1)c1cccc(Cl)c1 (centres unmarked) [Example 90]: > 6.00

* * *

Biological target: PKA catalytic domain (Homo sapiens, UniProt P17612)
Construct: PKA catalytic domain from Upstate Biotechnology (#14-440); purchased Upstate Biotechnology 14-440
Test: Measurement of PKA kinase inhibitory activity (IC50)
Format: biochemical
pIC50: −log10 of the molar value.
measurement.name: pIC50

1. NCC(c1ccccc1)c1ccc(-c2cn[nH]c2)cc1 (centres unmarked) [Example 1]: > 6.00
2. Clc1ccc(C2(c3ccc(-c4cn[nH]c4)cc3)CNCCO2)cc1 (centres unmarked) [Example 79]: > 6.00

* * *

Quick reference for pIC50 among some compounds
Biological target: PKB-PIF fusion protein (protein kinase B) (Homo sapiens)
Construct: PIF (fusion partner); made in house
Test: Measurement of PKB kinase inhibitory activity (IC50)
Format: biochemical
Settings: 0.6 nM enzyme, 30 μM ATP/γ33P-ATP, 25 μM AKTide-2T substrate; read-out: PKB IC50
pIC50: −log10 of the molar value.
measurement.name: pIC50

1. Cc1n[nH]c(C)c1-c1ccc(C2(c3ccccc3)CCNCC2)cc1 [Example 18]: > 5.30
2. COCCCOc1ccc(C2(c3ccc(-c4cn[nH]c4)cc3)CCNCC2)cc1 [Example 68]: > 5.30
3. CN1CCCN(C(c2ccccc2)c2ccc(-c3cn[nH]c3)cc2)CC1 (stereo not drawn) [Example 58]: > 5.30
4. Clc1ccc(C2(c3ccc(-c4cn[nH]c4)cc3)CCNCC2)cc1Cl [Example 85]: > 6.00
5. Clc1ccc(C(CN2CCCC2)c2ccc(-c3cn[nH]c3)cc2)cc1 (stereo not drawn) [Example 25]: > 6.00
6. NCC(O)(c1ccc(Cl)cc1)c1ccc(-c2cn[nH]c2)cc1 (stereo not drawn) [Example 84]: > 6.00
7. CNCCC(c1ccc(F)cc1)c1ccc(-c2cn[nH]c2)cc1 (stereo not drawn) [Example 54]: > 6.00
8. CN(C)CC(c1ccc(-c2cn[nH]c2)cc1)c1ccc(-c2cn[nH]c2)cc1 [Example 28]: > 6.00
9. CNCCC(c1ccc(-c2cn[nH]c2)cc1)c1ccc(N(C)C)cc1 (stereo not drawn) [Example 53]: > 5.30

* * *

Target: PKB-PIF fusion protein (protein kinase B) (Homo sapiens, UniProt P31751)
Construct: PIF (fusion partner); made in house
Test: Measurement of PKB kinase inhibitory activity (IC50)
Type: biochemical
Conditions: 0.6 nM enzyme, 30 μM ATP/γ33P-ATP, 25 μM AKTide-2T substrate; read-out: PKB IC50
measurement.name: IC50

1. CCNCC(c1ccc(Cl)cc1)c1ccc(-c2cn[nH]c2)cc1 (stereo not drawn): < 1000 nM
2. NC(=O)CC(c1ccc(-c2cn[nH]c2)cc1)c1ccc(Cl)c(Cl)c1 (stereo not drawn): < 1000 nM
3. Clc1ccc(C(CCN2CCC2)c2ccc(-c3cn[nH]c3)cc2)cc1 (stereo not drawn): < 1000 nM
4. CNCC(O)(c1ccc(-c2cn[nH]c2)cc1)c1ccc([N+](=O)[O-])cc1 (stereo not drawn): < 1000 nM
5. CNCC(O)(c1ccc(Cl)cc1)c1ccc(-c2cn[nH]c2)cc1 (stereo not drawn): < 1000 nM
6. N#Cc1ccc(C2(c3ccc(-c4cn[nH]c4)cc3)CCNCC2)cc1: < 1000 nM
7. CNCC(c1ccc(Oc2ccccc2)cc1)c1ccc(-c2cn[nH]c2)cc1 (stereo not drawn): < 5000 nM
8. COc1ccc(C(CCN)c2ccc(-c3cn[nH]c3)cc2)cc1 (stereo not drawn): < 1000 nM
9. CNCC(c1ccc(-c2cccnc2)cc1)c1ccc(-c2cn[nH]c2)cc1 (stereo not drawn): < 5000 nM
10. Clc1ccc(C(CN2CCOCC2)c2ccc(-c3cn[nH]c3)cc2)cc1 (stereo not drawn): < 5000 nM
11. CN(C)CCC(c1ccc(-c2cn[nH]c2)cc1)c1ccccn1 (stereo not drawn): < 5000 nM
12. c1ccc(C2(c3ccc(-c4cn[nH]c4)cc3)CCNCC2)cc1: < 1000 nM
13. CNCCC(c1ccc(-c2cn[nH]c2)cc1)c1ccc(F)c(F)c1 (stereo not drawn): < 1000 nM
14. NC(=O)C(c1ccc(Cl)cc1)c1ccc(-c2cn[nH]c2)cc1 (stereo not drawn): < 5000 nM
15. CNCC(c1ccc(Cl)cc1)c1ccc(-c2cn[nH]c2)cc1 (stereo in doubt) [Example 22]: < 1000 nM
16. Clc1ccc(C(Cn2ccnc2)c2ccc(-c3cn[nH]c3)cc2)cc1 (stereo not drawn): < 1000 nM
17. OCCCNCC(c1ccc(Cl)cc1)c1ccc(-c2cn[nH]c2)cc1 (stereo not drawn): < 1000 nM
18. NCCC(c1ccc(Oc2ccccc2)cc1)c1ccc(-c2cn[nH]c2)cc1 (stereo not drawn): < 1000 nM
19. CNCC(Oc1ccccc1)c1ccc(-c2cn[nH]c2)cc1 (stereo not drawn): < 5000 nM
20. Cc1n[nH]cc1-c1ccc(C2(c3ccc(Cl)cc3)CCNCC2)cc1: < 1000 nM
21. Clc1ccc(C(c2ccc(-c3cn[nH]c3)cc2)N2CCNCC2)cc1 (stereo not drawn): < 1000 nM
22. Clc1ccc(C(CN2CCCCC2)c2ccc(-c3cn[nH]c3)cc2)cc1 (stereo not drawn): < 1000 nM
23. NCCC(c1ccc(-c2cn[nH]c2)cc1)c1ccc(Cl)c(Cl)c1 (stereo not drawn): < 1000 nM
24. c1ccc(C(c2ccc(-c3cn[nH]c3)cc2)N2CCNCC2)cc1 (stereo not drawn): < 5000 nM
25. CNCC(c1ccc(OC)cc1)c1ccc(-c2cn[nH]c2)cc1 (stereo not drawn): < 1000 nM
26. NC(=O)CC(c1ccc(Cl)cc1)c1ccc(-c2cn[nH]c2)cc1 (stereo not drawn): < 5000 nM
27. CNCC(c1ccc(Oc2cc(C(N)=O)ccn2)cc1)c1ccc(-c2cn[nH]c2)cc1 (stereo not drawn): < 50000 nM
28. Clc1ccc(C(CCn2ccnc2)c2ccc(-c3cn[nH]c3)cc2)cc1 (stereo not drawn): < 1000 nM
29. CN1CCC(c2ccc(Cl)cc2)(c2ccc(-c3cn[nH]c3)cc2)CC1: < 1000 nM
30. CNCC(c1ccc(Oc2cnccn2)cc1)c1ccc(-c2cn[nH]c2)cc1 (stereo not drawn): < 1000 nM
31. CNCC(c1ccc(-c2cn[nH]c2)cc1)c1ccc(-c2cn[nH]c2)cc1: < 1000 nM
32. COc1ccc(C2(c3ccc(-c4cn[nH]c4)cc3)CCNCC2)cc1: < 1000 nM
33. CN(C)CC(c1ccc(Cl)cc1)c1ccc(-c2cn[nH]c2)cc1 (stereo not drawn): < 1000 nM
34. OCCNCC(c1ccc(Cl)cc1)c1ccc(-c2cn[nH]c2)cc1 (stereo not drawn): < 1000 nM
35. NC(c1ccc(Cl)cc1)c1ccc(-c2cn[nH]c2)cc1 (stereo not drawn): < 1000 nM
36. c1ccc(OC(CCn2ccnc2)c2ccc(-c3cn[nH]c3)cc2)cc1 (stereo not drawn): < 50000 nM
